# Target desc: human Orexin-2 receptor (Homo sapiens)
# Construct: expressed in transfected cells
# Protocol text: Antagonist affinity at human Orexin-2 receptor using FLIPR ([Ca2+]i)
# Format: cell-based
# Conditions: functional pKi from IC50 by modified Cheng-Prusoff correction, read-out: fpKi Orexin 2 receptor (converted)
Endpoint name: Ki (nM)

[I] Cc1ccc(-c2ncccc2C)c(C(=O)N2C[C@@H]3C[C@@H]3C[C@H]2CNc2ccc(C(F)(F)F)cn2)n1
[II] CCCOc1ccc(C)nc1C(=O)N1C[C@@H]2C[C@@H]2C[C@H]1CNc1cnc(C)c(C)n1
# compare Ki for I vs II ; return the one with the smaller value # reply format: chosen label II
(II: 1.26 nM, I: 15.8 nM)

====

# Target desc: human Orexin-1 receptor (Homo sapiens, UniProt O43613)
# Sequence (O43613 whole entry A280G, form open): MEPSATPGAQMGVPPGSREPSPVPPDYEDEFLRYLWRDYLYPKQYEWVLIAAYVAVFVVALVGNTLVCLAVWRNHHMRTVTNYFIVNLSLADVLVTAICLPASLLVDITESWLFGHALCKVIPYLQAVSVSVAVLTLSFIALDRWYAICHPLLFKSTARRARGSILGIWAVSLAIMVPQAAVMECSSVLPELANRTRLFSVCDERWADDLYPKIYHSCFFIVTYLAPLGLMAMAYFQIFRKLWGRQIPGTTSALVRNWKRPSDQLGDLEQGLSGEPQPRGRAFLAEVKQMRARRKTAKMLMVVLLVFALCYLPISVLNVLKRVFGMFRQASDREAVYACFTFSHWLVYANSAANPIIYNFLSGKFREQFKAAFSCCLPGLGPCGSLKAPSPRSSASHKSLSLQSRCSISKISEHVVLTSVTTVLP
# Protocol text: Antagonist affinity at human Orexin-1 receptor using FLIPR ([Ca2+]i)
# Assay type: cell-based
# Conditions: functional pKi from IC50 by modified Cheng-Prusoff correction
Endpoint name: fpKi Orexin 1 receptor

smiles_code=Cc1ccc(C(=O)N2C[C@@H]3C[C@@H]3C[C@H]2CNc2ccc(C(F)(F)F)cn2)nc1-c1ncccn1 target_desc="human Orexin-1 receptor (Homo sapiens, UniProt O43613)" endpoint_name="fpKi Orexin 1 receptor" observed=6.0
smiles_code=CCCOc1ccc(C)nc1C(=O)N1C[C@@H]2C[C@@H]2C[C@H]1CNc1ncc(C(F)(F)F)cn1 target_desc="human Orexin-1 receptor (Homo sapiens, UniProt O43613)" endpoint_name="fpKi Orexin 1 receptor" observed=9.5
smiles_code=Cc1ccc(NC[C@@H]2C[C@H]3C[C@H]3CN2C(=O)c2nc(C)ccc2OCC2CC2)nc1 target_desc="human Orexin-1 receptor (Homo sapiens, UniProt O43613)" endpoint_name="fpKi Orexin 1 receptor" observed=9.3
smiles_code=CCOc1ccc(C)nc1C(=O)N1C[C@@H]2C[C@@H]2C[C@H]1CNc1ncc(C(F)(F)F)cn1 target_desc="human Orexin-1 receptor (Homo sapiens, UniProt O43613)" endpoint_name="fpKi Orexin 1 receptor" observed=9.5
smiles_code=CCCOc1ccc(C)nc1C(=O)N1C[C@@H]2C[C@@H]2C[C@H]1CNc1cnc(C)c(C)n1 target_desc="human Orexin-1 receptor (Homo sapiens, UniProt O43613)" endpoint_name="fpKi Orexin 1 receptor" observed=9.0

[A] CCOc1ccc(C)nc1C(=O)N1C[C@@H]2C[C@@H]2C[C@H]1CNc1ncc(C)cn1
[B] Cc1coc(-c2ccc(C)nc2C(=O)N2C[C@@H]3C[C@@H]3C[C@H]2CNc2ncc(C(F)(F)F)cn2)n1
# argmax over fpKi Orexin 1 receptor for candidates A and B # reply format: chosen label A
(A: 9.1, B: 6.0)

====

# Target desc: human Orexin-2 receptor (Homo sapiens, UniProt O43614)
# Construct: expressed in transfected cells
# Sequence (O43614 1-444): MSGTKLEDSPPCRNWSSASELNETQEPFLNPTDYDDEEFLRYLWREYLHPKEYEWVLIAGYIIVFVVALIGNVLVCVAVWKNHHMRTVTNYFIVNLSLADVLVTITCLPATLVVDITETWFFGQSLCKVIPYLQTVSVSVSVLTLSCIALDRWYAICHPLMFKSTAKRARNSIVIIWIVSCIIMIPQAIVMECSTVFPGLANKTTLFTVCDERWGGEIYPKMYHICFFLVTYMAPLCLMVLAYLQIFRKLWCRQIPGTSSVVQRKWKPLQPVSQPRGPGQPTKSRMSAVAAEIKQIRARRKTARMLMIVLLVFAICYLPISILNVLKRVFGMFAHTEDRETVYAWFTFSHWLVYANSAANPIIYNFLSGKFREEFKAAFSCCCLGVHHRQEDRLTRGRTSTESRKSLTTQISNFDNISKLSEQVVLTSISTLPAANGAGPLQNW
# Protocol text: Antagonist affinity at human Orexin-2 receptor using FLIPR ([Ca2+]i)
# Format: cell-based
# Conditions: functional pKi from IC50 by modified Cheng-Prusoff correction, read-out: fpKi Orexin 2 receptor (converted)
Endpoint name: Ki (nM)

smiles_code=Cc1cnn(-c2ccc(C)nc2C(=O)N2C[C@@H]3C[C@@H]3C[C@H]2CNc2ccc(C(F)(F)F)cn2)c1 endpoint_name=Ki unit_string=nM observed=0.398
smiles_code=CCCOc1ccc(C)nc1C(=O)N1C[C@@H]2C[C@@H]2C[C@H]1CNc1ncc(C(F)(F)F)cn1 endpoint_name=Ki unit_string=nM observed=63.1
smiles_code=Cc1ccc(NC[C@@H]2C[C@H]3C[C@H]3CN2C(=O)c2nc(C)ccc2OCC2CC2)nc1 endpoint_name=Ki unit_string=nM observed=3.98

[a] CCOc1ccc(C)nc1C(=O)N1C[C@@H]2C[C@@H]2C[C@H]1CNc1ncc(C)cn1
[b] Cc1coc(-c2ccc(C)nc2C(=O)N2C[C@@H]3C[C@@H]3C[C@H]2CNc2ncc(C(F)(F)F)cn2)n1
# argmax over Ki for candidates a and b # reply format: chosen label b
